Parameter Top (MFI): see the listing below.
SYSTEM_UNDER_TEST: T1, human LIV-1 (human, UniProt Q13433 29-755)
T1 construct: whole, on cells; also called H-LIV1
T1 sequence (looked up): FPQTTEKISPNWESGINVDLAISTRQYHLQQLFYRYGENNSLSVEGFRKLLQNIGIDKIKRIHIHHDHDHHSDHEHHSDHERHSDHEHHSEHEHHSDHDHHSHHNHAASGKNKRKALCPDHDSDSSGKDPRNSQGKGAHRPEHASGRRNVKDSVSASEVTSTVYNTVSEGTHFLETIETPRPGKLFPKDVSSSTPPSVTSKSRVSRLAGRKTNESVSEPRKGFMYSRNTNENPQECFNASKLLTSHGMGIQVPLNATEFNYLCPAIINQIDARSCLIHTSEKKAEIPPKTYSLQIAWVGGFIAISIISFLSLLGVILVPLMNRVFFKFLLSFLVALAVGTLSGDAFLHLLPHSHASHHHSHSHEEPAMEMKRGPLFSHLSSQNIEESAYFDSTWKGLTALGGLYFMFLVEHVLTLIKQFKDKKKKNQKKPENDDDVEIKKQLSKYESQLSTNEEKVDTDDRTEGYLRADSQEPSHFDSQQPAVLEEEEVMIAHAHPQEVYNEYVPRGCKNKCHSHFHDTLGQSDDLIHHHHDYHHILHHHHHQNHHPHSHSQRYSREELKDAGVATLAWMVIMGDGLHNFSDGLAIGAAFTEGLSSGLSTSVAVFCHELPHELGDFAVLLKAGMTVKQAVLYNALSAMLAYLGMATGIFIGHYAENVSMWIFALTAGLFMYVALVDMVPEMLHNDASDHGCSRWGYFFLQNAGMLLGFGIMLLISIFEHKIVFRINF
METHOD_DESCRIPTION: FACS, BT20/H_LIV-1 High cells
Give just the number in MFI; leave the unit off.

Example cases with answers are listed next.
BINDER	UNIT_TAG	Top (MFI)
290F10G10.p1.Z2 (antibody, V domains shown, also called 290F10G10.z2; LM-001) VH: EVQLVQSGAEVKKPGASVKVSCKASGYTFTSYWIHWVRQAPGQGLEWMGTIYPGDADTRSTQKFKDRVTMTADTSTSTVYMELSSLRSEDTAVYYCARSLIHDDYDKYYFDYWGQGTTVTVSS VL: DIQMTQSPSSLSASVGDRVTITCKARQDINKYIAWYQQKPGKAPKLLIHYTSILQPGIPSRFSGSGSGRDYTFTISSLQPEDIATYYCLQYDYFFTFGGGTKVEIK	MFI	18800
5D6B10.z7-Eribulin (antibody, V domains shown, Eribulin drug moiety conjugated; site and chain not stated, Antibody-drug conjugate of 5D6B10.z7; human gamma 1/kappa) VH: QVQLVQSGGGVVQPGRSLRLSCTVSGFSLTTYGIHWVRQSPGKGLEWLGVIWTGGTTDYNAAFISRLTISKDNSKSTVYFQMNSLQAEDTAIYYCARGPSSYWGQGTLVTVSS VL: EIVMTQSPATLSVSPGERATLSCKASQNVDTNVVWYQQKPGQSPRALIYSASYRYSGVPARFSGSGSGTEFTLTISSLQSEDFAVYFCQQYNNYPWTFGQGTKVEIK	MFI	154000

Proceed to the following item.
Supply recorded Top (MFI) for 124H4D11.p2.z4-MMAE (antibody, V domains shown, MMAE drug moiety conjugated; site and chain not stated, Antibody-drug conjugate of 124H4D11.p2.z4; human gamma 1/kappa) VH: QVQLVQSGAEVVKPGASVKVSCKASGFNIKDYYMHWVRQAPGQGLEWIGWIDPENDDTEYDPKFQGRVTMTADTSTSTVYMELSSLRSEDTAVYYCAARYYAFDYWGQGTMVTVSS VL: DVLMTQSPLSLPVTLGQPASISCRSSQSIVHSNANTYLEWYLQRPGQSPRLLIYKVSNRFSGVPDRFSGSGSGTDFTLKISRVEAEDVGVYYCFQGSQVPPTFGQGTKLEIK here.
20000

Every entry's value here was drawn from patent US20240325555A1.
